assay: Growth inhibition of human PC3 cells at 10 uM after 48 hrs by SRB assay relative to control; assay type: functional; settings: PC-3, 48 h, read-out: GI
Could you label it met if measured inhibition of growth at 10 µM is 70% or higher, and not met otherwise?

As a guide, the following entries are already answered.
smiles_record=O=C(c1ccc(F)cc1F)N1c2ccccc2Sc2ccccc21 assigned_label="not met"
smiles_record=COc1ccc(C(=O)N2c3ccccc3Sc3ccccc32)c(OC)c1 assigned_label=met

Moving on to another molecule below.
Query: Determine whether this molecule has inhibition of growth at 10 µM no lower than 70%: O=C(c1ccc2c(c1)Sc1ccccc1N2)c1c[nH]c2ccccc12
Response: met
